Where these numbers come from: patent US20250122304A1

For each of the binders below, state its Kd.
Molecular target: T1, human fibroblast activation protein (FAP) (human, UniProt Q12884 26-760)
T1 construct: also called human FAP; hFAP
T1 sequence: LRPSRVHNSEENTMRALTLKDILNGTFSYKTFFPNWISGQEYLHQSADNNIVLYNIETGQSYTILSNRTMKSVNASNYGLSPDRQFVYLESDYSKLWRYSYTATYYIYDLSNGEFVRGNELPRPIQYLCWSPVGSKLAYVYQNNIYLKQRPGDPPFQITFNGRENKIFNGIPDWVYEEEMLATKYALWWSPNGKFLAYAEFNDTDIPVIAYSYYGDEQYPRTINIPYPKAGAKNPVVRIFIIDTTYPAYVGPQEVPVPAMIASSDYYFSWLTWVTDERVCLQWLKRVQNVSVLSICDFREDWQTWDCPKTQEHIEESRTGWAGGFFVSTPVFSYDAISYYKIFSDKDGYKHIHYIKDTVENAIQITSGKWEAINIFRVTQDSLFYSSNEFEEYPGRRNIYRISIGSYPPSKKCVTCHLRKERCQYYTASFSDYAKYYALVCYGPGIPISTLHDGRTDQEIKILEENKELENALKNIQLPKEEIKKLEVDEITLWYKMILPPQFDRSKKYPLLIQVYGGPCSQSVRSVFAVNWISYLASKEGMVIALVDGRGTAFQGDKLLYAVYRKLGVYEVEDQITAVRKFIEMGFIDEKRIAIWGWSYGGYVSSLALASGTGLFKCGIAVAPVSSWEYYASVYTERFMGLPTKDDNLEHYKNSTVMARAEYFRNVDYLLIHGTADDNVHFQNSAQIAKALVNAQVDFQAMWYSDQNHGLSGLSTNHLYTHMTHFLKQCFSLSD
Experiment: BLI (Octet), kinetics to human FAP, post TCO conjugation
Answers are plain numbers, in nM.

TCO-VHH8 (VHH, trans-cyclooctene (TCO) conjugated via TCO-NHS; site(s) and number not stated, also called TCO conjugated VHH8; VHH8 post conjugation) VHH: QVQLQESGGGTVQPGGSLRLSCAASGISVSIASMAWYRQAPGKQRELVAGIISGGSTNYADSVKGRFTISRDNAKKVVLLQMNSLKPEDTAVYYCNTYPPFVGPGATATWGQGTQVTVSS | 0.671
TCO-VHH6 (VHH, trans-cyclooctene (TCO) conjugated via TCO-NHS; site(s) and number not stated, also called TCO conjugated VHH6; VHH6 post conjugation) VHH: DVQLVESGGGLVQAGGSLRLSCAVSGSISSANSMGWYRQAPGKQRDVVAGLTTGGRSHYADSVKGRFTISRDNAKNTVYLQMNSLKAEDTAVYYCNLWPPVQGYWGQGTQVTVSS | 0.147

Consider now this further binder.
What value of Kd has been recorded for this entry: TCO-VHH7 (VHH, trans-cyclooctene (TCO) conjugated via TCO-NHS; site(s) and number not stated, also called TCO conjugated VHH7; VHH7 post conjugation) VHH: QVQLQESGGGLVQAGGSLRLSCTASGTFSGRNAMAWYRQAPGKRRELVAGIRSDDSTNYVDSVKGRFTISRDNAKNTVYLQMNSLRPEDTAVYYCNLWPPVIGAGFGSWGQGTQVTVSS
0.166
